- Tested on: S. marcescens S714
- protocol.summary: In vitro antibacterial activity (MIC)
- Assay type: cell-based
- experimental.conditions: Serratia marcescens, S714, S. marcescens S714; read-out: MIC
Counter-ions that a name gives are not always drawn.
I'd be grateful if you could share measured MIC for these entries.
Please give a number only; it is taken to be in µg/mL.

Q. Give the measured MIC of CC1(C)S[C@@H]2[C@H](N=CN3CCC(CCCn4ccnc4N)CC3)C(=O)N2[C@H]1C(=O)O [I, hydrochloride] .
A. 0.125

Q. // next record Cc1nc(C)n(CCCC2CCN(C=N[C@@H]3C(=O)N4[C@@H]3SC(C)(C)[C@@H]4C(=O)O)CC2)c1C [E, hydrate hydrochloride]
A. 1

Q. // next record CN(C)C=Nc1nccn1CCCC1CCN(C=N[C@@H]2C(=O)N3[C@@H]2SC(C)(C)[C@@H]3C(=O)O)CC1 [S, hydrate]
A. 4

Q. // next record CC1(C)S[C@@H]2[C@H](N=CN3CCC(C4=NCCN4)CC3)C(=O)N2[C@H]1C(=O)O [L, hydrochloride]
A. 2

====

I'd be grateful if you could share measured MIC for these entries.
- Tested on: C. diversus CDC 1663-72
- protocol.summary: In vitro antibacterial activity (MIC)
- Assay type: cell-based
- experimental.conditions: Citrobacter koseri, CDC166372; C. diversus CDC 1663-72; read-out: MIC
Where a name gives a salt, the structure may show the parent alone.
Please give a number only; it is taken to be in µg/mL.

Q. Give the measured MIC of CC1(C)S[C@@H]2[C@H](N=CN3CCC(Cc4ncc[nH]4)CC3)C(=O)N2[C@H]1C(=O)O [Q, hydrochloride] .
A. 0.062

Q. // next record CC1(C)S[C@@H]2[C@H](N=CN3CCC(C4=NCCN4)CC3)C(=O)N2[C@H]1C(=O)O [L, hydrochloride]
A. 0.5

Q. // next record CC1(C)S[C@@H]2[C@H](N=CN3CCC(CCCn4ccnc4CO)CC3)C(=O)N2[C@H]1C(=O)O [R, hydrate]
A. 0.016

Q. // next record CC1(C)S[C@@H]2[C@H](N=CN3CCCC(c4ncc[nH]4)C3)C(=O)N2[C@H]1C(=O)O (stereo partly drawn) [P, hydrochloride]
A. 2

Q. // next record Cc1nccn1CCCC1CCN(C=N[C@@H]2C(=O)N3[C@@H]2SC(C)(C)[C@@H]3C(=O)O)CC1 [F, hydrate]
A. 0.062

Q. // next record CC1(C)S[C@@H]2[C@H](N=CN3CCC(CCCn4ccnc4N)CC3)C(=O)N2[C@H]1C(=O)O [I, hydrochloride]
A. 0.031

Q. // next record CN(C)C=Nc1nccn1CCCC1CCN(C=N[C@@H]2C(=O)N3[C@@H]2SC(C)(C)[C@@H]3C(=O)O)CC1 [S, hydrate]
A. 0.5

Q. // next record CC1(C)S[C@@H]2[C@H](N=CN3CCC(CCCn4ccnc4[N+](=O)[O-])CC3)C(=O)N2[C@H]1C(=O)O [K, hydrate]
A. 0.25

Q. // next record CC1(C)S[C@@H]2[C@H](N=CN3CCC(CCCn4ccnc4)CC3)C(=O)N2[C@H]1C(=O)O [C, hydrochloride monohydrate]
A. 4

Q. // next record CC1(C)S[C@@H]2[C@H](N=CN3CCC(CC4=NCCN4)CC3)C(=O)N2[C@H]1C(=O)O [M, hydrochloride]
A. 0.062

Q. // next record CC1(C)S[C@@H]2[C@H](N=CN3CCC(CCC4=NCCN4)CC3)C(=O)N2[C@H]1C(=O)O [N, hydrochloride]
A. 0.031

Q. // next record CC1(C)S[C@@H]2[C@H](N=CN3CCC(CCn4ccnc4)CC3)C(=O)N2[C@H]1C(=O)O [B, hydrate hydrochloride]
A. 0.25

Q. // next record CC1(C)S[C@@H]2[C@H](N=CN3CCC(Cn4ccnc4CN)CC3)C(=O)N2[C@H]1C(=O)O [J, hydrochloride]
A. 0.031

Q. // next record CC1(C)S[C@@H]2[C@H](N=CN3CCC(Cn4ccnc4N)CC3)C(=O)N2[C@H]1C(=O)O [H, hydrochloride]
A. 0.062

Q. // next record Cc1nc(C)n(CCCC2CCN(C=N[C@@H]3C(=O)N4[C@@H]3SC(C)(C)[C@@H]4C(=O)O)CC2)c1C [E, hydrate hydrochloride]
A. 0.062

All values here come from patent US4605744A.
